These data points were gathered from paper PMC6009887.

- experimentalTarget: UniProtKB P00592
- Sequence (P00592 23-146): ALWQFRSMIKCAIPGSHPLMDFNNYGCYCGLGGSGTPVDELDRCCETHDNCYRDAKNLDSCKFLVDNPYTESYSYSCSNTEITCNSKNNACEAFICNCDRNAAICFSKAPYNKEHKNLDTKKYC
- assayNotes: Inhibition of sPLA2 activity, colorimetric lecithin/red phenol assay, group IB
- Format: biochemical, porcine
Below, each of the molecules is paired with its reported IC50 value.
Kindly answer with a numeric value in µM, unit omitted.

{"molecule": "O=c1[nH]c2ccccc2n2c(-c3ccc([N+](=O)[O-])cc3[N+](=O)[O-])nnc12 [Compound 4b]", "experimentalTarget": "UniProtKB P00592", "IC50 [µM]": 13.6}

Now examine the next entry.
Input line: Find the recorded IC50 belonging to O=c1[nH]c2ccccc2nc1N/N=C/c1ccc([N+](=O)[O-])cc1[N+](=O)[O-] [Compound 3b] and report it.
Output line: 10.7

====

- experimentalTarget: hG-IIA sPLA2 (Homo sapiens, UniProt P14555)
- Sequence (P14555 21-144): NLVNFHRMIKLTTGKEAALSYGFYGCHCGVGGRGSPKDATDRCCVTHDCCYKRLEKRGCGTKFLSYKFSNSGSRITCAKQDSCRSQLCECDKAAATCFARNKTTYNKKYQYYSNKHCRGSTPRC
- assayNotes: Inhibition of sPLA2 activity, colorimetric lecithin/red phenol assay, group IIA
- Assay type: biochemical
Below, each of the molecules is paired with its reported IC50 value.
Kindly answer with a numeric value in µM, unit omitted.

{"smilesText": "O=c1[nH]c2ccccc2nc1N/N=C/c1ccc([N+](=O)[O-])cc1[N+](=O)[O-]", "experimentalReadout": "IC50", "unitSymbol": "µM", "experimentalResult": 5.36}

Input line: Find the recorded IC50 belonging to O=c1[nH]c2ccccc2n2c(-c3ccc([N+](=O)[O-])cc3[N+](=O)[O-])nnc12 and report it.
Output line: 0.76

====

- experimentalTarget: hG-X sPLA2 (Homo sapiens, UniProt O15496)
- Sequence (O15496 43-165): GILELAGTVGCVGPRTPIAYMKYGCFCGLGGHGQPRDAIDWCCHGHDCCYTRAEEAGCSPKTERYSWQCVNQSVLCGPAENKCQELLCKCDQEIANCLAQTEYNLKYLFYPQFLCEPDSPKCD
- assayNotes: Inhibition of sPLA2 activity, colorimetric lecithin/red phenol assay, group X
- Assay type: biochemical
Below, each of the compounds is paired with its reported pIC50 value.
// pIC50: -log10(molar conc.)

{"smilesText": "O=c1[nH]c2ccccc2nc1N/N=C/c1ccc([N+](=O)[O-])cc1[N+](=O)[O-]", "experimentalResult": 5.60}

Now examine the next entry.
Input line: Find the recorded pIC50 belonging to O=c1[nH]c2ccccc2n2c(-c3ccc([N+](=O)[O-])cc3[N+](=O)[O-])nnc12 and report it.
Output line: 5.98

====

- experimentalTarget: UniProt Q9BZM1
- assayNotes: Inhibition of sPLA2 activity, colorimetric lecithin/red phenol assay, group XII
- Type: biochemical
Below, each of the molecules is paired with its reported IC50 value.
Kindly answer with a numeric value in nM, unit omitted.

{"smilesText": "O=c1[nH]c2ccccc2nc1N/N=C/c1ccc([N+](=O)[O-])cc1[N+](=O)[O-]", "experimentalResult": 2280}

Now examine the next entry.
Input line: Find the recorded IC50 belonging to O=c1[nH]c2ccccc2n2c(-c3ccc([N+](=O)[O-])cc3[N+](=O)[O-])nnc12 and report it.
Output line: 2580

====

- experimentalTarget: hG-XIIA sPLA2 (Homo sapiens)
- Sequence (Q9BZM1 23-189): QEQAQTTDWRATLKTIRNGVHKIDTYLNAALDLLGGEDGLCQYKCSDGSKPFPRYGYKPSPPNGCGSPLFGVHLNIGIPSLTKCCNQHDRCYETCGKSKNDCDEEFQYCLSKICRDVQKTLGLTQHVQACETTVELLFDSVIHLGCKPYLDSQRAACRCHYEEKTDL
- assayNotes: Inhibition of sPLA2 activity, colorimetric lecithin/red phenol assay, group XII
- Assay type: biochemical
- testConditions: ± standard deviation, duplicate; read-out: IC50 (µM) Against Phospholipase hG-XIIA
Please use y for IC50 under 7 µM and n for everything else, ties included.

{"smilesText": "O=c1[nH]c2ccccc2n2c(-c3ccc(O)cc3O)nnc12", "categoryLabel": "y"}
{"smilesText": "COc1cc(/C=N/Nc2nc3ccccc3[nH]c2=O)cc(OC)c1OC", "categoryLabel": "y"}
{"smilesText": "O=c1[nH]c2ccccc2nc1N/N=C/c1ccc(Cl)c(Cl)c1", "categoryLabel": "n"}

Input line: Take the compound COc1cccc(/C=N/Nc2nc3ccccc3[nH]c2=O)c1 and say whether its IC50 is less than 7 µM.
Output line: y

Input line: Take the compound O=c1[nH]c2ccccc2nc1N/N=C/c1ccc(O)cc1O and say whether its IC50 is less than 7 µM.
Output line: y

Input line: Take the compound COc1cc(-c2nnc3c(=O)[nH]c4ccccc4n23)cc(OC)c1OC and say whether its IC50 is less than 7 µM.
Output line: n

Input line: Take the compound O=c1[nH]c2ccccc2nc1N/N=C/c1cccs1 and say whether its IC50 is less than 7 µM.
Output line: y

Input line: Take the compound O=c1[nH]c2ccccc2n2c(-c3ccc(Cl)c(Cl)c3)nnc12 and say whether its IC50 is less than 7 µM.
Output line: y

Input line: Take the compound O=c1[nH]c2ccccc2n2c(-c3cccs3)nnc12 and say whether its IC50 is less than 7 µM.
Output line: n

Input line: Take the compound COc1cccc(-c2nnc3c(=O)[nH]c4ccccc4n23)c1 and say whether its IC50 is less than 7 µM.
Output line: n
